conditions: 313.15 K; 101 kPa; Liquid
± gives the expanded uncertainty stated by the source.
measured-metric: mass density

- C[S+](C)[O-] [dimethyl sulfoxide]: 1082.3 ± 3.2 kg/m3
- CC(C)O [propan-2-ol]: 768.6 ± 2.1 kg/m3
- CO [methanol]: 772.4 ± 2.2 kg/m3
- CCO [ethanol]: 774.6 ± 2.2 kg/m3

Alright, here's another compound for you.
Which mass density is listed for CCCO [propan-1-ol] ?
787 ± 2.2 kg/m3

* * *

conditions: 318.15 K; 101 kPa; Liquid
Doc: threshold 800 kg/m3 (exclusive). Items with mass density beneath it return true; others return false.

* CO | true

Confirm or reject: mass density of "CC(C)O" lies strictly below 800 kg/m3
true

Confirm or reject: mass density of "CCO" lies strictly below 800 kg/m3
true

Confirm or reject: mass density of C[S+](C)[O-] [dimethyl sulfoxide] lies strictly below 800 kg/m3
false

* * *

Recorded mass density values for a group of compounds are listed next.
conditions: 323.15 K; 101 kPa; Liquid
# unit: kg/m3 | format: bare number

Sample records with mass density:
* CCO [ethanol] | 766.1
* CCCO [propan-1-ol] | 779.5
* CC(C)O [propan-2-ol] | 758.8

Alright, here's another compound for you.
Which mass density is listed for CO [methanol] ?
762.7

* * *

Recorded viscosity values for a group of compounds are listed next.
conditions: 313.15 K; 101 kPa; Liquid
# unit: mPa·s | format: bare number

Sample records with viscosity:
- CO: 0.4515
- C[S+](C)[O-] [dimethyl sulfoxide]: 1.537
- CCCO: 1.367

Which viscosity is listed for "CCO" ?
0.8596

Which viscosity is listed for "CC(C)O" ?
1.355

Attribution: the NIST ThermoML archive (doi:10.1016/j.jct.2006.10.016)
